# Test system: giant foxtail
# ASSAY_EXPLANATION: Test B pre/postemergence giant foxtail
# Type: in vivo, Setaria faberii
# REPORTED_CONDITIONS: Rate 500 g/ha, Postemergence; scale 0 to 10, 0 no effect, 10 complete control
Some compounds, each annotated with its measured Giant foxtail plant response rating.

{"columns": ["CPD_SMILES", "Giant foxtail plant response rating"],
 "data": [
  ["CC(C)N(C(=O)n1oc(=O)n(CCC2CCCCC2)c1=O)c1ccc(F)cc1", 2],
  ["CC(C)N(C(=O)n1oc(=O)n(C2CCCC2)c1=O)c1ccc(Cl)cc1", 2],
  ["CC(C)N(C(=O)n1oc(=O)n(C2CC2)c1=O)c1ccccc1", 8],
  ["CCn1c(=O)on(C(=O)N(c2ccc(F)cc2)C(C)C)c1=O", 8]
]}
